Origin of values: the supplement of paper PMC10724198

# System: Saccharomyces cerevisiae;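 also: PSI is a weighted mean of each variant's read distribution over the sorted stability bins, computed only for variants having over 10 reads in total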
# Assay Info: protein stability index of tFT-peptide fusion in deletion strain of DAS1 (PSI (0-1 scale)); higher = more stable (slower turnover)
Item-by-item account of protein stability index
Number, no unit, nothing else.

// worked examples, protein stability index included
[
  {
    "Sequence String": "RLIQPLPVQFGN",
    "Reported Property": "protein stability index",
    "Assay Result": 0.611
  },
  {
    "Sequence String": "LVVYLSCVHCIN",
    "Reported Property": "protein stability index",
    "Assay Result": 0.251
  },
  {
    "Sequence String": "PDLAASFWRVVG",
    "Reported Property": "protein stability index",
    "Assay Result": 0.708
  }
]

Please provide the recorded protein stability index for ARWRVGLWRGAK , tested on Saccharomyces cerevisiae. 0.659

Recall the recorded protein stability index for LVVYLSCVAKIN with Saccharomyces cerevisiae and state it. 0.0401

Given the entry VRGAVGMWRLVG , what protein stability index was observed with Saccharomyces cerevisiae? 0.691

GET /values?readout=protein stability index&system=Saccharomyces cerevisiae&item= VRGAVGGWRLVT 0.675

Under Saccharomyces cerevisiae: protein stability index value of LVVYLSCVACIS ? 0.0369
